- SYSTEM_NAME: Mitogen-activated protein kinase kinase kinase 14 (Homo sapiens, UniProt Q99558)
- Sequence (Q99558 whole entry): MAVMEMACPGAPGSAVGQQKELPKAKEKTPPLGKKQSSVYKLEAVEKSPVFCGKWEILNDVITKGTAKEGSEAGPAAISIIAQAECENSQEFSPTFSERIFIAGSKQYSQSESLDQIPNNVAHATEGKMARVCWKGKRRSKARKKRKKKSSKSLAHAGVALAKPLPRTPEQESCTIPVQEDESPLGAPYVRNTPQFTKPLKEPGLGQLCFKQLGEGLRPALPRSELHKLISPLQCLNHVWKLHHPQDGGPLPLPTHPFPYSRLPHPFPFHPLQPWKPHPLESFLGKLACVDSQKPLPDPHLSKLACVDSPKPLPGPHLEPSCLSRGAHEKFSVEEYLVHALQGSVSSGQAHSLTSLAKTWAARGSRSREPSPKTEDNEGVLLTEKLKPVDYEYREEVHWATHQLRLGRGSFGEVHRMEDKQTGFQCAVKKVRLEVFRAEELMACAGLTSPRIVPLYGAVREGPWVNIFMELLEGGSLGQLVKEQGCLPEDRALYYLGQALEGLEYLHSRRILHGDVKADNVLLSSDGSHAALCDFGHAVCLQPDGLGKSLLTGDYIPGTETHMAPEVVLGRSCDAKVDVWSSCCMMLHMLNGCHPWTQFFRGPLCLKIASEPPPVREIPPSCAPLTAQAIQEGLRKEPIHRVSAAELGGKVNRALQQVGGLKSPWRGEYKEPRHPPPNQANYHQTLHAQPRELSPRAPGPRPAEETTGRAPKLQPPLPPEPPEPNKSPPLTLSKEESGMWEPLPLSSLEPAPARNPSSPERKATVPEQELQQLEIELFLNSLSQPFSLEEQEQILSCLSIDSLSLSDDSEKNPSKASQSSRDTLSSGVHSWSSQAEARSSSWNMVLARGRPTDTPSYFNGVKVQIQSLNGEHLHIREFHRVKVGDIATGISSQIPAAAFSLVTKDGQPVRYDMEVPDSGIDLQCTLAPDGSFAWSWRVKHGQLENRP
- EXPERIMENT_NOTES: Inhibition of NIK (unknown origin)
ENDPOINT: IC50

Please give measured IC50 of the following entry: `CC(C)(C)c1cc(NC(=O)Cc2ccc(Nc3ncnc4[nH]c(-c5ccc(S(C)(=O)=O)cc5)cc34)cc2)no1`
> 10 µM

====

Can you tell me IC50 for the items I'm about to list?
- SYSTEM_NAME: Proto-oncogene tyrosine-protein kinase receptor Ret (Homo sapiens)
- Sequence (P07949 whole entry, the tested form may be a part): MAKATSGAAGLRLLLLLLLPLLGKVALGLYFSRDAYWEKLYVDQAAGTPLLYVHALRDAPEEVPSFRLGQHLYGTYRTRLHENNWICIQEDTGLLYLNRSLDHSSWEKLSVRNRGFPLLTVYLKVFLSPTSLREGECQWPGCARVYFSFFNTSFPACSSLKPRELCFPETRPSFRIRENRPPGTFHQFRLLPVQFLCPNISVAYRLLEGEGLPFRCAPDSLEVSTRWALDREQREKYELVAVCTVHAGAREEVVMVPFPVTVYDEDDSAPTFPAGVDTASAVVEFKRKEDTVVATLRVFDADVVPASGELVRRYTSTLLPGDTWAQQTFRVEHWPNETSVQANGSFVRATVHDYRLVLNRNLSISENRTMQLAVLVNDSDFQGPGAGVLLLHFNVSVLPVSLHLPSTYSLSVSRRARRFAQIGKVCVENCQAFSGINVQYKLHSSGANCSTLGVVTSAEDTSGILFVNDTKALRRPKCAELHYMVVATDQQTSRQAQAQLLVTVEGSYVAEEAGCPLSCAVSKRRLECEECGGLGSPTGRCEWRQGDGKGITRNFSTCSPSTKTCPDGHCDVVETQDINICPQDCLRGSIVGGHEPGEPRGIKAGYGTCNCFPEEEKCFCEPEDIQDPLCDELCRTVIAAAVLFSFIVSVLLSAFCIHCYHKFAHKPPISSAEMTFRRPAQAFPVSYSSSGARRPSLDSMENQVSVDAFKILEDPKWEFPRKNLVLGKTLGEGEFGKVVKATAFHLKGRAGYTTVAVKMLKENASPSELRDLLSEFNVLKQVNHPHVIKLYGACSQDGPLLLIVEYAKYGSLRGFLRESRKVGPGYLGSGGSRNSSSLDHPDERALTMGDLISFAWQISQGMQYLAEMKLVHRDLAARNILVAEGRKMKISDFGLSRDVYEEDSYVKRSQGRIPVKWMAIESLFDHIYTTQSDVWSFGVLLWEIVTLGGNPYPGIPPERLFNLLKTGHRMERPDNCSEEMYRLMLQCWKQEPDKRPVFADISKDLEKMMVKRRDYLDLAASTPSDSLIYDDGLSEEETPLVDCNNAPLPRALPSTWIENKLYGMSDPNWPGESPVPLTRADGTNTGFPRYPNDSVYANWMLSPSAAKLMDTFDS
- EXPERIMENT_NOTES: Inhibition of recombinant human GST-tagged RET cytoplasmic domain (658 to 1114 residues) expressed in baculovirus expression system using 5-FAM-EEPLYWSFPAKKK-CONH2 as substrate preincubated for 60 mins followed by substrate addition by microfluidic assay
Field format: number, assumed µM, no unit text.

Recall the reported IC50 of `Cn1nc(C(C)(C)C)cc1NC(=O)Cc1ccc(Nc2ncnc3c2ccn3C)cc1` on Proto-oncogene tyrosine-protein kinase receptor Ret (Homo sapiens) and write it down.
3.93

Recall the reported IC50 of `CC(C)(C)c1cc(NC(=O)Cc2ccc(Nc3ncnc4sccc34)cc2)no1` on Proto-oncogene tyrosine-protein kinase receptor Ret (Homo sapiens) and write it down.
0.96

Recall the reported IC50 of `COc1ccc(-c2cc3c(Nc4ccc(CC(=O)Nc5ccc(C(C)C)cc5)cc4)ncnc3[nH]2)cc1` on Proto-oncogene tyrosine-protein kinase receptor Ret (Homo sapiens) and write it down.
2.44

Recall the reported IC50 of `CC(C)(C)c1ccc(-c2cc3c(Nc4ccc(CC(=O)Nc5cc(C(C)(C)C)on5)cc4)ncnc3[nH]2)cc1` on Proto-oncogene tyrosine-protein kinase receptor Ret (Homo sapiens) and write it down.
13.5

Recall the reported IC50 of `Cn1cc(-c2cc3c(Nc4ccc(CC(=O)Nc5cc(C(C)(C)C)on5)cc4)ncnc3[nH]2)cn1` on Proto-oncogene tyrosine-protein kinase receptor Ret (Homo sapiens) and write it down.
0.009

Recall the reported IC50 of `O=C(Cc1ccc(Nc2ncnc3[nH]ccc23)cc1)Nc1cccc(C(F)(F)F)c1` on Proto-oncogene tyrosine-protein kinase receptor Ret (Homo sapiens) and write it down.
16.2

Recall the reported IC50 of `Cn1cc(-c2cc3c(Nc4ccc(CC(=O)Nc5cc(C(C)(C)C)nn5C)cc4)ncnc3[nH]2)cn1` on Proto-oncogene tyrosine-protein kinase receptor Ret (Homo sapiens) and write it down.
0.021

Recall the reported IC50 of `O=C(Cc1ccc(Nc2ncnc3[nH]ccc23)cc1)NC1CCC1` on Proto-oncogene tyrosine-protein kinase receptor Ret (Homo sapiens) and write it down.
3.91

Recall the reported IC50 of `Cn1ccc2c(Nc3ccc(CC(=O)Nc4cc(C(C)(C)C)on4)cc3)ncnc21` on Proto-oncogene tyrosine-protein kinase receptor Ret (Homo sapiens) and write it down.
3.51

Recall the reported IC50 of `O=C(Cc1ccc(Nc2ncnc3[nH]ccc23)cc1)Nc1cccc2ncccc12` on Proto-oncogene tyrosine-protein kinase receptor Ret (Homo sapiens) and write it down.
19

Recall the reported IC50 of `CC(C)(C)c1ccc(NC(=O)Cc2ccc(Nc3ncnc4[nH]ccc34)cc2)cc1` on Proto-oncogene tyrosine-protein kinase receptor Ret (Homo sapiens) and write it down.
15.8
